Molecular target: T1, human IL-21R expressed on cells (human, UniProt Q9HBE5 20-538)
T1 construct: also called human IL-21R-BaF3; human IL-21R-TF1
T1 sequence (Q9HBE5 20-538 limits assumed): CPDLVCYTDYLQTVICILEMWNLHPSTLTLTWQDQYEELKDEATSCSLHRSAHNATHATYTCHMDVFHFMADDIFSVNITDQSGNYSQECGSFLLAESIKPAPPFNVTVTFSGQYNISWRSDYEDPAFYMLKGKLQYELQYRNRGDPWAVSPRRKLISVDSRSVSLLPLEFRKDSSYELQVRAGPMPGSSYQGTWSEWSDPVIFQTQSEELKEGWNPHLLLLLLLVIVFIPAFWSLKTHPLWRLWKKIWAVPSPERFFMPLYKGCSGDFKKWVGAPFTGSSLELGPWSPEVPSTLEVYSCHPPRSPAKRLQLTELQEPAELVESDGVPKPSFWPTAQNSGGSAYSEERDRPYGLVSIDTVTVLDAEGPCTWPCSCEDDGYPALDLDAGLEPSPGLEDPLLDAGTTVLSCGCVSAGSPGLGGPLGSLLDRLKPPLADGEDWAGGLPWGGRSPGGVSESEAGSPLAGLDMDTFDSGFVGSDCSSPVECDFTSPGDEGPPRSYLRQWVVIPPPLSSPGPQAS
Experiment: cell ELISA, CHO cells
outcome_measure: A450 (13 nM Ab) (A450)
The reply should contain only the number, in A450.

>>> reported_value("AbS (antibody, V domains shown, CDR3 graft, residue limits derived as for m29; also called VHP/VL6; VHPTM/VL6) VH: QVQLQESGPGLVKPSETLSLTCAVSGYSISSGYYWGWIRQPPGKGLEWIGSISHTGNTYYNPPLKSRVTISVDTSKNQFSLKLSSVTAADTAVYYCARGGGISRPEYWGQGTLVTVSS VL: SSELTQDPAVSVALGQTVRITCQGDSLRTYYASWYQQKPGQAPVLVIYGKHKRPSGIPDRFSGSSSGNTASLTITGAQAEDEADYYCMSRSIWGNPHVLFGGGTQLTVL")
1.02

Could you now consider this next binder?
(Q) # lookup: A450 (13 nM Ab) of AbM (antibody, IgG1, V domains shown, As for AbA: IgG1/lambda, CDR3 graft, residue limits derived; also called VH6/VL13) VH: QVQLQESGPGLVKPSETLSLTCAVSGYSISSGYYWGWIRQPPGKGLEWIGSISHTGNTYYNPPLKSRVTISVDTSKNQFSLKLSSVTAADTAVYYCARFFGFGRPEYWGQGTLVTVSS VL: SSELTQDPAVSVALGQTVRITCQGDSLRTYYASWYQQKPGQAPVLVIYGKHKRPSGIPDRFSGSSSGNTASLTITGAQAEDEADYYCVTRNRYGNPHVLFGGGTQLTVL
(A) 1.2

Reference source: patent US20120276102A1
